# Test system: A549/ATCC NSCLC
# experiment: NCI-60 one-dose screen, 48 h
# cond: 10 µM unless noted
About 83,000 compounds went through this panel and 20% of them were active in at least one assay; those are over-represented in the sample as a whole. Activity calls are given as the source filed them. Rule for the calls: active = growth percent below 10; inactive = the rest.
Pick from 1 (yes) (active), 0 (no) (inactive) when you respond.

INPUT: Just curious, what result did "CC(=O)O[C@H]1C[C@@]2(C)[C@@H](C[C@@H](O)[C@H]3[C@@]4(C)CC[C@H](N5CCCC5)[C@@H](C)[C@@H]4CC[C@@]32C)/C1=C(\CCC=C(C)C)C(=O)O" get here?
OUTPUT: 0 (no)

INPUT: I would be grateful if you could indicate the recorded call for "CN(C)CCOc1nc2c3cc([N+](=O)[O-])ccc3nn2c2ccccc12" .
OUTPUT: 0 (no)

INPUT: Assay result, entry "Cc1ccc(S(=O)(=O)N(CCC(=O)O)c2ccccc2)cc1" — outcome?
OUTPUT: 0 (no)

INPUT: Hello, I am checking results. What call was entered for "COc1ccc(/C=N/NC(=O)Cn2nnc3ccccc32)cc1" ?
OUTPUT: 0 (no)

INPUT: Write down the call the test reported for this molecule. Item: "Cc1nc2ccccc2c(/C=C/c2ccc(Cl)cc2)c1C(=O)/C=C/c1ccccc1"
OUTPUT: 0 (no)

INPUT: Write down the call the test reported for this molecule. Item: "O=C(O)CCCN1C(=O)CSC1=S"
OUTPUT: 0 (no)

INPUT: Entry "Clc1ccc(C2=Nn3c(nnc3-c3cc(Cl)cc(Cl)c3Cl)SC2)cc1" : call = ?
OUTPUT: 0 (no)

INPUT: Please let me know the test result on file for "COc1cc(/C=C/C(=O)c2ccc(-n3cc(CN4CCN(c5cc6c(cc5F)c(=O)c(C(=O)O)cn6C5CC5)CC4)nn3)cc2)cc(OC)c1OC" .
OUTPUT: 0 (no)

INPUT: Short answer needed: outcome of this test for "Cn1ccnc1C(=O)/C=C/c1ccc(C(=O)Nc2c(F)c(F)c(F)c(F)c2F)cc1" ?
OUTPUT: 1 (yes)

INPUT: Which result was noted for this molecule in the test: "COc1nc2ccccc2cc1/C=C1/C=C(c2ccccc2)NC1=O"
OUTPUT: 0 (no)

INPUT: Test call for this molecule, please: O=C1C2C(c3cccs3)C=C(c3ccc(Cl)cc3)N2C(=S)N1c1ccccc1 (stereo not drawn)
OUTPUT: 0 (no)

INPUT: Which outcome was entered for the molecule "CCOC(=O)c1c(Nc2nc3ccccc3s2)sc2c1CCC(=O)C2" in this test?
OUTPUT: 0 (no)

INPUT: So what was the verdict on "O=C(OCc1ccc2c(Br)cc(Br)c(O)c2n1)N1CCN(C(=O)c2cc3ccccc3[nH]2)CC1" in this test?
OUTPUT: 0 (no)

INPUT: // param item: "CCCCCCCC/C=C\CCCCCCCCOc1ccc(CC(=O)NCC[N+]2(C)CCCC2)cc1" ; yields the recorded call
OUTPUT: 0 (no)

INPUT: Hi, do you know how N#C/C(=C\c1cccc2cnccc12)N1N=NC2C=CC=CC21 (stereo not drawn) came out in this test?
OUTPUT: 0 (no)

INPUT: State the result this test recorded for O=C1CCC(C(=O)N/N=C/c2ccc([N+](=O)[O-])cc2)N1 (stereo not drawn) .
OUTPUT: 0 (no)

INPUT: Please let me know the test result on file for "O=C(Nc1ccc(Oc2cccc(F)c2)c(Cl)c1)c1cnccn1" .
OUTPUT: 0 (no)

INPUT: Kindly provide the recorded test outcome for the following molecule: "CC(C)n1nc(-c2ccc3oc(N)nc3c2)c2c(N)ncnc21"
OUTPUT: 1 (yes)

INPUT: Recorded call for "CC/C(=C(/c1ccc(Cl)cc1)c1ccc(OCCN(CC)CC)cc1)c1ccc(OC)cc1" ?
OUTPUT: 0 (no)

INPUT: Test call, this molecule: "O=c1c(Cc2ccc(F)cc2)cc(-c2ccccc2)nn1C/C(=N/O)c1ccccc1"
OUTPUT: 0 (no)

INPUT: Recorded call for "C/C(=C(\c1ccc(OCCCN(C)C)cc1)c1ccc(OC(=O)Cc2ccccc2)cc1)c1ccc(Cl)cc1" ?
OUTPUT: 0 (no)

INPUT: Which outcome was assigned to "COC(=O)c1ccc(-n2cc(CCCOS(=O)(=O)c3ccc(F)cc3)nn2)cc1" in this test?
OUTPUT: 0 (no)

INPUT: // param item: "O=C(/C=C/c1ccc(Cl)cc1)c1ccc(-n2cc(CN3CCN(c4cc5c(cc4F)c(=O)c(C(=O)O)cn5C4CC4)CC3)nn2)cc1" ; yields the recorded call
OUTPUT: 0 (no)

INPUT: Check the results log: what was the call for "CC(C)C(=O)Nc1ncc(C(=O)NCCN(Cc2ccccc2)C(=O)c2ccc(S(=O)(=O)Nc3ccccc3)cc2)s1" ?
OUTPUT: 0 (no)

INPUT: Tell me the assay call for CN1C(=O)N(C)C2C1NN=c1s/c(=C\c3ccc(F)cc3)c(=O)n12 (stereo not drawn) please.
OUTPUT: 0 (no)

INPUT: Entry COc1ccc(S(=O)(=O)NC2c3ccccc3CC2O)cc1OC (stereo not drawn) : call = ?
OUTPUT: 0 (no)

INPUT: Please indicate how the test categorized "CN(C)CCOc1ccc(/C(=C(/CCCCCCCCCC[P+](c2ccccc2)(c2ccccc2)c2ccccc2)c2ccccc2)c2ccccc2)cc1" .
OUTPUT: 1 (yes)

INPUT: // outcome(item) with item = COc1c(O[C@@H]2OC(CO)[C@H](O)[C@H](O)C2O)cc2oc3cc(O)c(CC=C(C)C)c(O)c3c(=O)c2c1CC=C(C)C (stereo partly drawn)
OUTPUT: 0 (no)

INPUT: Assay result, entry "COc1ccccc1NC(=O)n1c(=O)cc(C)c2ccc(O)cc21" — outcome?
OUTPUT: 0 (no)

INPUT: Test call, this molecule: CN(C)CC1C(=O)O[C@H]2[C@H]1CC/C(COC(=O)NCc1ccc(Cn3c(=O)sn(CCCI)c3=O)cc1)=C\CC[C@@]1(C)O[C@@H]21 (stereo partly drawn)
OUTPUT: 0 (no)

INPUT: Status in this test for "Cc1c2cnccc2c(C)c2c1c1cc(C(=O)O)ccc1n2C" ?
OUTPUT: 1 (yes)

INPUT: Which outcome was entered for the molecule "N#Cc1c(-c2ccc(Cl)cc2)nc(NN=Cc2cccc(Cl)c2)nc1N1CCOCC1" in this test?
OUTPUT: 0 (no)

INPUT: Write down the call the test reported for this molecule. Item: "C=C1/C(=C\C=C2/CCC[C@]3(C)[C@@H]([C@H](C)CCCC(C)(C)O)CC[C@@H]23)C[C@@H](OC(=O)CBr)C[C@@H]1O"
OUTPUT: 0 (no)

INPUT: # outcome recorded in this test, key = "CN1CCN(Cc2ccc(NC(=O)c3cncc(C#Cc4c(N)ncc5cc(F)ccc45)c3)cc2C(F)(F)F)CC1"
OUTPUT: 0 (no)

INPUT: // param item: "CCOC(=O)c1c2c(n3ccc(NC(=O)CCN4CCCC4)cc13)C(=O)c1ncccc1C2=O" ; yields the recorded call
OUTPUT: 1 (yes)

INPUT: // outcome(item) with item = "Oc1cccc(-c2nc(-c3n[nH]c(=S)n3-c3ccccc3)cc3c2[nH]c2ccccc23)c1"
OUTPUT: 0 (no)

INPUT: Check the results log: what was the call for "COc1cc2cc(Oc3ccc(NC(=O)Nc4ccc(F)c(C(F)(F)F)c4)cc3)c(C)nc2cc1OCCN1CCCCC1" ?
OUTPUT: 1 (yes)

INPUT: What did this assay record as the result for CCOC(=O)C1=CCC(n2cc(F)c(=O)[nH]c2=O)O1 (stereo not drawn) ?
OUTPUT: 0 (no)
